assay_endpoint: melting point

Task: Find the recorded melting point belonging to `Cc1c(NS(=O)(=O)C(F)(F)F)cc(C(=O)N2CCOCC2)c(C)c1C` and report it.
Output: 247 to 250 °C

Next:
Task: Find the recorded melting point belonging to `Cc1c(NS(=O)(=O)C(F)(F)F)cc(C(=O)N(C)C)c(C)c1F` and report it.
Output: 243 to 245 °C

Task: Would you kindly repeat that for Cc1cc(C)c(C2=NOC3COCCC23)cc1NS(=O)(=O)C(F)(F)F (centres unmarked) ?
Output: 117 to 120 °C

Task: Would you kindly repeat that for `Cc1cc(C)c(C(=O)N2CCCCC2)cc1NS(=O)(=O)C(F)(F)F` ?
Output: 262 to 266 °C

Task: Would you kindly repeat that for `Cc1c(NS(=O)(=O)C(F)(F)F)cc(C(=O)N2CCOCC2)c(C)c1F` ?
Output: 236 to 240 °C

----------
Test system: barnyardgrass (Echinochloa crus-galli)
assay_overview: Test A postemergence, barnyardgrass
Format: in vivo
cond: Postemergence, 31 g ai/ha; visual injury on 0 to 100 scale (0 no effect, 100 complete control), approx. 10 days
Source text: Seeds of plant species selected from barnyardgrass (Echinochloa crus-galli), kochia (Bassia scoparia), ragweed (common ragweed, Ambrosia artemisiifolia), Ryegrass, Italian (Italian ryegrass, Lolium multiflorum), Foxtail, Giant (giant foxtail, Setaria faberi), and pigweed (Amaranthus retroflexus) were planted into a blend of loam soil and sand and treated preemergence with a directed soil spray using test chemicals formulated in a non-phytotoxic solvent mixture which included a surfactant. […]
assay_endpoint: Plant response rating, Barnyardgrass
Form field (numeric): enter value without unit.

The cases that follow already have their Plant response rating, Barnyardgrass on record.
Task: Recall the recorded Plant response rating, Barnyardgrass for CCOC1CCCN(C(=O)c2cc(NS(=O)(=O)C(F)(F)F)c(C)cc2C)C1 (centres unmarked) with barnyardgrass (Echinochloa crus-galli) and state it.
Output: 30

Task: Would you kindly repeat that for `Cc1cc(C)c(C(=O)N2CCC(C#N)CC2)cc1NS(=O)(=O)C(F)(F)F` ?
Output: 40

Task: Would you kindly repeat that for Cc1cc(C)c(C2=NOC3(C2)CC(C)CC(C)C3)cc1NS(=O)(=O)C(F)(F)F (single isomer, unassigned) ?
Output: 30

Task: Would you kindly repeat that for `Cc1cc(C)c(N(S(=O)(=O)C(F)(F)F)S(=O)(=O)C(F)(F)F)cc1N1CC2(CCOCC2)OC1=O` ?
Output: 20

Moving on to another compound below.
Task: Recall the recorded Plant response rating, Barnyardgrass for `Cc1cc(C)c(N(COC(=O)CC(C)C)S(=O)(=O)C(F)(F)F)cc1C1=NOC2(CCCC2)C1` with barnyardgrass (Echinochloa crus-galli) and state it.
Output: 0

----------
The following compounds are shown together with reported Plant response rating, Ryegrass, Italian values.
Tested on: Ryegrass, Italian (Italian ryegrass, Lolium multiflorum)
assay_overview: Test A postemergence, Ryegrass, Italian
Format: in vivo
cond: Postemergence, 125 g ai/ha; visual injury approx. 10 days; 0 to 100 scale (0 no effect, 100 complete control)
Form field (numeric): enter value without unit.

The cases that follow already have their Plant response rating, Ryegrass, Italian on record.
Task: Recall the recorded Plant response rating, Ryegrass, Italian for Cc1cc(C)c(-c2ccnn(C)c2=O)cc1NS(=O)(=O)C(F)(F)F [Compound 80] with Ryegrass, Italian (Italian ryegrass, Lolium multiflorum) and state it.
Output: 70

Task: Would you kindly repeat that for Cc1cc(C)c(-c2cc(Cl)nn(C)c2=O)cc1NS(=O)(=O)C(F)(F)F [Compound 72] ?
Output: 60

Task: Would you kindly repeat that for Cc1cc(C)c(N(S(C)(=O)=O)S(=O)(=O)C(F)(F)F)cc1-c1cc(Cl)nn(C)c1=O [Compound 46] ?
Output: 0

Task: Would you kindly repeat that for Cc1ccc(=O)n(-c2cc(NS(=O)(=O)C(F)(F)F)c(C)cc2C)n1 [Compound 85] ?
Output: 40

Task: Would you kindly repeat that for Cc1cc(C)c(C2=NOC3CCCCC23)cc1NS(=O)(=O)C(F)(F)F (racemic) [Compound 125] ?
Output: 0

Next:
Task: Recall the recorded Plant response rating, Ryegrass, Italian for COc1cc(-c2cc(NS(=O)(=O)C(F)(F)F)c(C)cc2C)c(=O)n(C)n1 [Compound 70] with Ryegrass, Italian (Italian ryegrass, Lolium multiflorum) and state it.
Output: 0

Task: Would you kindly repeat that for Cc1cc(C)c(-c2ccnn(CC(C)C)c2=O)cc1NS(=O)(=O)C(F)(F)F [Compound 77] ?
Output: 0

Task: Would you kindly repeat that for Cc1ccc(-c2ccnn(C)c2=O)cc1NS(=O)(=O)C(F)(F)F [Compound 59] ?
Output: 0
